The reported measurements were obtained from PubChem BioAssay AID1845203.

System: G-401 tumor spheroids, viability % test/control
Test: Anticancer human tumor G-401 cell line growth inhibition;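 note: spheroids exposed to compound for 7 days; 100% = DMSO vehicle-treated spheroids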
Details: second compound 0.000949 µM; first compound 0.316 µM; stronger effect = lower value; spheroids with HUVEC and MSC
Protocol: Multicellular complex tumor spheroid response to DNA repair inhibitors in combination with DNA-damaging drugs This study explores the anticancer activities of DNA-damaging drugs and inhibitors of DNA damage repair, both as single agents and in combinations. […] Twenty-six patient-derived or established malignant cell lines were evaluated representing sarcoma, melanoma, small cell lung cancer (SCLC), non-small cell lung cancer (NSCLC), as well as bladder, ovarian and pancreatic cancers. […]
Recorded viability, T/C, one value per entry.
Use % as the unit, but write only the number.

COc1cc(C)[nH]c(=O)c1CN1CCc2c(Cl)cc(C(OC)C3COC3)c(Cl)c2C1=O (configuration not stated) + COc1cc2c(cc1O)CCNC21CSC2c3c(OC(C)=O)c(C)c4c(c3C(COC1=O)N1C(O)C3Cc5cc(C)c(OC)c(O)c5C(C21)N3C)OCO4; 3.78

Here is the next item to consider.
The value of viability, T/C measured for the compound CC1COCCN1c1cc(-c2ccnn2C)c2ccnc(-c3ccn[nH]3)c2n1 (configuration not stated) + COc1cc2c(cc1O)CCNC21CSC2c3c(OC(C)=O)c(C)c4c(c3C(COC1=O)N1C(O)C3Cc5cc(C)c(OC)c(O)c5C(C21)N3C)OCO4 turned out to be 6.97
